- Test system: DU-145 prostate
- assay.info: NCI tumour cell line growth inhibition, 48 h; in the data active means GI50 below about 0.43 µM; inactive means the rest
Choose one outcome from this list and give only that: YES for active, NO for inactive

CN(C)c1cc(NN=C(c2ccc(O)cc2)c2ccc(O)cc2)c([N+](=O)[O-])cc1[N+](=O)[O-]: NO
O=C1CCCCN1c1ccccc1C#C/C=C\C#Cc1ccccc1C(F)(F)F: NO
O=C(CCCSc1nc(-c2ccccc2)cc(-c2ccccc2)n1)NO: NO
CC1SC(c2ccc(F)cc2)N(NC(=O)C(O)c2ccccc2)C1=O (stereo not given): NO

Please turn your attention to the following entry.
## Task What call does the record list for Nc1n[nH]c2cc(F)c([C@@H]3Nc4ccc5[nH]ncc5c4[C@H]4C5CCC(C5)[C@@H]34)cc12 (stereo not given in full) ?
## Result YES
